Record form. Attribute: fold change (FC). Fill in for each entry.
molecular target: Tubulin (Homo sapiens) (UniProt P68371+Q9H4B7+P0DPH7+P68366+Q13509+Q71U36+P04350+Q3ZCM7+P07437+P68363+Q9BQE3+Q6PEY2+Q13885+Q9BVA1+Q9BUF5); test: Stabilization of microtubules in human QBI293 cells assessed as fold change in acetylated tubulin levels at 1 uM after 4 hrs by ELISA relative to cevipabulin; type: cell-based
Give bare numbers.

Solved entries (count: 5):
| compound | fold change (FC) |
| --- | --- |
| Fc1cc(F)c(-c2c(Cl)nc3ncnn3c2NC2CCCCC2)c(F)c1 | 0.07 |
| CC(C)[C@@H](C)Nc1c(-c2c(F)cccc2F)c(Cl)nc2ncnn12 | 0.96 |
| C[C@H](Nc1c(-c2ccc(C#N)cc2F)c(Cl)nc2ncnn12)C(F)(F)F | 0.37 |
| N#Cc1cc(F)c(-c2c(Cl)nc3ncnn3c2N2CCCCCC2)c(F)c1 | 1.04 |
| Nc1c(-c2c(F)cc(F)cc2F)c(Cl)nc2ncnn12 | 0.09 |

Can you give me fold change (FC) for all of these, one by one?
1. CC(Oc1c(-c2c(F)cc(F)cc2F)c(Cl)nc2ncnn12)C(F)(F)F (stereo not drawn)
2. C[C@H](Nc1c(-c2cc(F)cc(F)c2)c(Cl)nc2ncnn12)C(F)(F)F

1: 0.19; 2: 0.12

Can you give me fold change (FC) for all of these, one by one?
1. CC(CF)Nc1c(-c2c(F)cc(F)cc2F)c(Cl)nc2ncnn12 (stereo not drawn)
2. C[C@H](Nc1c(-c2c(F)cc([S+](C)[O-])cc2F)c(Cl)nc2ncnn12)C(F)(F)F (stereo partly drawn)
3. C[C@H](Nc1c(Cc2c(F)cc(F)cc2F)c(Cl)nc2ncnn12)C(F)(F)F
4. COc1cc(F)c(-c2c(Cl)nc3ncnn3c2N[C@@H](C)C(F)(F)F)c(F)c1
5. Fc1cc(F)c(-c2c(Cl)nc3ncnn3c2Nc2ccccc2)c(F)c1
6. Fc1cc(F)c(-c2c(Cl)nc3ncnn3c2N2CCC2)c(F)c1

0.3
0.21
0.09
0.64
0.09
0.26

Can you give me fold change (FC) for all of these, one by one?
1. Fc1cc(F)c(-c2c(Cl)nc3ncnn3c2N2CCCC2)c(F)c1
2. C[C@H](Nc1c(-c2c(F)cc(C#N)cc2F)c(Cl)nc2ncnn12)C(F)(F)F
3. C[C@H](Nc1c(-c2ccccc2F)c(Cl)nc2ncnn12)C(F)(F)F
4. C[C@H](Nc1c(-c2ccc(F)cc2F)c(Cl)nc2ncnn12)C(F)(F)F
5. C[C@@H](Nc1c(-c2c(F)cc(F)cc2F)c(Cl)nc2ncnn12)C(F)(F)F
6. Fc1cc(F)c(-c2c(Cl)nc3ncnn3c2N2CCCCC2)c(F)c1

[0.07, 0.27, 0.13, 0.13, 0.24, 0.13]

Can you give me fold change (FC) for all of these, one by one?
1. C[C@H](Nc1c(-c2c(F)cc(N)cc2F)c(Cl)nc2ncnn12)C(F)(F)F
2. C[C@H](Nc1c(-c2ccc(F)c(F)c2F)c(Cl)nc2ncnn12)C(F)(F)F

[0.17, 0.12]

###

target: Tubulin (Homo sapiens) (UniProt P68371+Q9H4B7+P0DPH7+P68366+Q13509+Q71U36+P04350+Q3ZCM7+P07437+P68363+Q9BQE3+Q6PEY2+Q13885+Q9BVA1+Q9BUF5); assay: Stabilization of microtubules in human QBI293 cells assessed as fold change in alpha tubulin levels at 1 uM after 4 hrs by ELISA relative to DMSO; assay type: cell-based
property: fold change (FC)
Give bare numbers.

Solved entries (count: 3):
| compound | fold change (FC) |
| --- | --- |
| C[C@H](Nc1c(-c2c(F)cc([N+](=O)[O-])cc2F)c(Cl)nc2ncnn12)C(F)(F)F | 0.96 |
| CC(Oc1c(-c2c(F)cc(F)cc2F)c(Cl)nc2ncnn12)C(F)(F)F (stereo unspecified) | 1.03 |
| C[C@H](Nc1c(-c2c(F)cc(S(C)(=O)=O)cc2F)c(Cl)nc2ncnn12)C(F)(F)F | 1.03 |

Can you give me fold change (FC) for all of these, one by one?
1. C[C@H](Nc1c(-c2ccc(C#N)cc2F)c(Cl)nc2ncnn12)C(F)(F)F
2. CC(Nc1c(-c2c(F)cc(F)cc2F)c(Cl)nc2ncnn12)C(F)F (stereo unspecified)
3. C[C@H](Nc1c(-c2ccc(F)cc2F)c(Cl)nc2ncnn12)C(F)(F)F
4. C[C@H](Nc1c(-c2c(F)cc(N)cc2F)c(Cl)nc2ncnn12)C(F)(F)F
5. C[C@H](Nc1c(-c2ccc(F)c(F)c2F)c(Cl)nc2ncnn12)C(F)(F)F
6. Fc1cc(F)c(-c2c(Cl)nc3ncnn3c2N2CCCCC2)c(F)c1
7. C[C@H](Nc1c(-c2c(F)cc(O)cc2F)c(Cl)nc2ncnn12)C(F)(F)F

1. 1
2. 1.19
3. 0.99
4. 0.97
5. 1.11
6. 1.23
7. 0.84

Can you give me fold change (FC) for all of these, one by one?
1. C[C@@H](Nc1c(-c2c(F)cc(F)cc2F)c(Cl)nc2ncnn12)C(F)(F)F
2. CC(C)Nc1c(-c2c(F)cc(F)cc2F)c(Cl)nc2ncnn12
3. Fc1cc(F)c(-c2c(Cl)nc3ncnn3c2N2CCCCCC2)c(F)c1

1. 1.23
2. 0.92
3. 0.99

Can you give me fold change (FC) for all of these, one by one?
1. CC(Cc1c(-c2c(F)cc(F)cc2F)c(Cl)nc2ncnn12)C(F)(F)F (stereo unspecified)
2. N#Cc1cc(F)c(-c2c(Cl)nc3ncnn3c2N2CCCCCCC2)c(F)c1
3. Nc1c(-c2c(F)cc(F)cc2F)c(Cl)nc2ncnn12

1. 1.03
2. 1.01
3. 1.08

###

target: Tubulin (Homo sapiens) (UniProt P68371+Q9H4B7+P0DPH7+P68366+Q13509+Q71U36+P04350+Q3ZCM7+P07437+P68363+Q9BQE3+Q6PEY2+Q13885+Q9BVA1+Q9BUF5); test: Stabilization of microtubules in human QBI293 cells assessed as fold change in acetylated tubulin levels at 10 uM after 4 hrs by ELISA relative to cevipabulin; format: cell-based
property: fold change (FC)
One number for each entry.

Solved entries (count: 4):
| compound | property | experimental result |
| --- | --- | --- |
| CCCNc1c(-c2c(F)cc(F)cc2F)c(Cl)nc2ncnn12 | fold change (FC) | 0.26 |
| CC(C)[C@@H](C)Nc1c(-c2ccc(C#N)cc2F)c(Cl)nc2ncnn12 (stereo in doubt; 67) | fold change (FC) | 0.75 |
| C[C@H](Nc1c(-c2c(F)cc(Cl)cc2F)c(Cl)nc2ncnn12)C(F)(F)F | fold change (FC) | 0.7 |
| C[C@H](Nc1c(-c2ccc(F)cc2)c(Cl)nc2ncnn12)C(F)(F)F | fold change (FC) | 0.16 |

Quick one: fold change (FC) for `CO[C@H]1C[C@H]2CC[C@@H](C1)N2c1c(-c2c(F)cc(F)cc2F)c(Cl)nc2ncnn12` ?
1.11

###

target: Tubulin (Homo sapiens) (UniProt P68371+Q9H4B7+P0DPH7+P68366+Q13509+Q71U36+P04350+Q3ZCM7+P07437+P68363+Q9BQE3+Q6PEY2+Q13885+Q9BVA1+Q9BUF5); assay: Stabilization of microtubules in human QBI293 cells assessed as fold change in acetylated tubulin levels at 1 uM after 4 hrs by ELISA relative to cevipabulin; format: cell-based
Record form. Attribute: fold change (FC). Fill in for each entry.
Answers are plain numbers.

Solved entries (count: 3):
| compound | experimental result |
| --- | --- |
| CC(C)[C@@H](C)Nc1c(-c2c(F)cc(C#N)cc2F)c(Cl)nc2ncnn12 | 0.62 |
| C[C@H](Nc1c(-c2c(F)cccc2F)c(Cl)nc2ncnn12)C(F)(F)F | 0.16 |
| CC(Cc1c(-c2c(F)cc(F)cc2F)c(Cl)nc2ncnn12)C(F)(F)F (stereo not given) | 0.53 |

Can you give me fold change (FC) for all of these, one by one?
1. Fc1cc(F)c(-c2c(Cl)nc3ncnn3c2NC2CCC2)c(F)c1
2. CC(C)[C@@H](C)Nc1c(-c2ccc(C#N)cc2F)c(Cl)nc2ncnn12 (stereo in doubt; 67)

0.13
0.61

###

Record form. Attribute: fold change (FC). Fill in for each entry.
biological target: Tubulin (Homo sapiens) (UniProt P68371+Q9H4B7+P0DPH7+P68366+Q13509+Q71U36+P04350+Q3ZCM7+P07437+P68363+Q9BQE3+Q6PEY2+Q13885+Q9BVA1+Q9BUF5); test: Stabilization of microtubules in human QBI293 cells assessed as fold change in acetylated tubulin levels at 10 uM after 4 hrs by ELISA relative to DMSO; type: cell-based

Solved entries (count: 3):
| compound | experimental result |
| --- | --- |
| C[C@H](Nc1c(-c2c(F)cc([N+](=O)[O-])cc2F)c(Cl)nc2ncnn12)C(F)(F)F | 6.65 |
| Cc1cc(F)c(-c2c(Cl)nc3ncnn3c2N[C@@H](C)C(F)(F)F)c(F)c1 | 2.73 |
| CO[C@H]1C[C@H]2CC[C@@H](C1)N2c1c(-c2c(F)cc(C#N)cc2F)c(Cl)nc2ncnn12 | 4.32 |

Then there is this compound:
Quick one: fold change (FC) for CC(C)[C@@H](C)Nc1c(-c2ccc(C#N)cc2F)c(Cl)nc2ncnn12 (stereo in doubt; 67) ?
3.42
